These measurements were taken from patent US9518052B2.

Where a name gives a salt, the structure may show the parent alone.
# IC50 per entry for UniProt:P52333
# Sequence (P52333 whole entry, species assumed): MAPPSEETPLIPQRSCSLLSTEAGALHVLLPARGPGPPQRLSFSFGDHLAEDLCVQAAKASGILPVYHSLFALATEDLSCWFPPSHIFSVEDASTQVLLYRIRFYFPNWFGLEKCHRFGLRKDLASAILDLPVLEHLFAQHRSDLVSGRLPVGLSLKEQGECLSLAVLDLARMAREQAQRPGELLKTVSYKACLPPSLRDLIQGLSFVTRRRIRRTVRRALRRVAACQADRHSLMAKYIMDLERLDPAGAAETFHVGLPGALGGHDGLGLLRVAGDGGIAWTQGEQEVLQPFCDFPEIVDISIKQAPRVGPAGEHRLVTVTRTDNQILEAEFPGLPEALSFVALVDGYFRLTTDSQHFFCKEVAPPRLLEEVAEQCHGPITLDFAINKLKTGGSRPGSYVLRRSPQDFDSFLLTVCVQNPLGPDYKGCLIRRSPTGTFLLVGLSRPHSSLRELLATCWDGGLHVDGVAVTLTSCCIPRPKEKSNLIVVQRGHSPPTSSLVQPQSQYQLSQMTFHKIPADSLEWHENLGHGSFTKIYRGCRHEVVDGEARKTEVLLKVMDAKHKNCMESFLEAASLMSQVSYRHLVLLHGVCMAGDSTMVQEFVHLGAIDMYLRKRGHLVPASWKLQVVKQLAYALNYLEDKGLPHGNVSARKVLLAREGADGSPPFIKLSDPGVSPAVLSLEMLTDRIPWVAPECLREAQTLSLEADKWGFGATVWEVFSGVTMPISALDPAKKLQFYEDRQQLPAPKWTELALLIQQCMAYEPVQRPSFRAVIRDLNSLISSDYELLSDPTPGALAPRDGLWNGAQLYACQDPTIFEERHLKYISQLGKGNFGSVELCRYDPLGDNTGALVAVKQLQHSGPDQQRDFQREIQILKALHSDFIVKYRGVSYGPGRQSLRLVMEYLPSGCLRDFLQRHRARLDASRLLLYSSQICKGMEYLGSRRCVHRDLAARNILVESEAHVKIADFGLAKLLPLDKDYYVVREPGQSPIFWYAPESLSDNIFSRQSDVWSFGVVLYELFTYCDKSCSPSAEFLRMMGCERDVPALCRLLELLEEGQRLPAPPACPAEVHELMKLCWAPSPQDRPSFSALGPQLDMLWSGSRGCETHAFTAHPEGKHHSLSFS
measurement.kind: IC50 (nM)

compound: CCN(c1nccnc1CNc1nc(-c2cc(F)c(O)cc2CC(F)(F)F)cc2[nH]nc(C(N)=O)c12)S(C)(=O)=O
experimental.system: UniProt:P52333
measured.result: 49.2
--
compound: CCc1cc(O)c(F)cc1-c1cc2[nH]nc(C(N)=O)c2c(NCc2ccc(O)cc2N(C)S(C)(=O)=O)n1
experimental.system: UniProt:P52333
measured.result: 23.3
--
compound: CCc1cc(O)c(F)cc1-c1nc(NCc2ccccc2N(C)S(C)(=O)=O)c2cn[nH]c2n1 [Example 155, hydrochloride]
experimental.system: UniProt:P52333
measured.result: 15.5
--
compound: CCc1cc(O)c(F)cc1-c1cc2[nH]nc(-c3nc(C)c[nH]3)c2c(NCc2ccccc2N(C)S(C)(=O)=O)n1
experimental.system: UniProt:P52333
measured.result: 83.3
--
compound: CN(c1ccccc1CNc1nc(-c2cc(F)c(O)cc2CC(F)(F)F)cc2[nH]nc(C(N)=O)c12)S(=O)(=O)CCCN1CCOCC1
experimental.system: UniProt:P52333
measured.result: 60
--
compound: CCc1cc(O)c(F)cc1-c1cc2[nH]ncc2c(NCc2cc(C)ccc2N(C)S(C)(=O)=O)n1 [Example 132, hydrochloride]
experimental.system: UniProt:P52333
measured.result: 18.4
--
compound: CNC(=O)c1n[nH]c2cc(-c3cc(F)c(O)cc3CC(F)(F)F)nc(NCc3ccccc3N(C)S(=O)(=O)N(C)C)c12
experimental.system: UniProt:P52333
measured.result: 409
